molecular target: Gag-Pol polyprotein [588-1027]/[588-1147] (Human immunodeficiency virus 1, UniProt P04585)
pIC50: −log10 of the molar value.
readout: pIC50

[ask] Returns the measured pIC50 for the input compound. Input: CC(=O)Nc1ccc2c(c1)C(C#CC(C)C)(C(F)(F)F)OC(=O)N2 (configuration not stated)
[reply] < 5.70

[ask] Can you check CC(=O)Nc1ccc2c(c1)C(C#CC1CC1)(C(F)(F)F)OC(=O)N2 (configuration not stated) next?
[reply] < 5.70
